- system.tested: furin, P09958;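 note: purified furin at 1:10 enzyme:substrate in 50 mM HEPES pH 7.5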
- Sequence (P09958 whole entry): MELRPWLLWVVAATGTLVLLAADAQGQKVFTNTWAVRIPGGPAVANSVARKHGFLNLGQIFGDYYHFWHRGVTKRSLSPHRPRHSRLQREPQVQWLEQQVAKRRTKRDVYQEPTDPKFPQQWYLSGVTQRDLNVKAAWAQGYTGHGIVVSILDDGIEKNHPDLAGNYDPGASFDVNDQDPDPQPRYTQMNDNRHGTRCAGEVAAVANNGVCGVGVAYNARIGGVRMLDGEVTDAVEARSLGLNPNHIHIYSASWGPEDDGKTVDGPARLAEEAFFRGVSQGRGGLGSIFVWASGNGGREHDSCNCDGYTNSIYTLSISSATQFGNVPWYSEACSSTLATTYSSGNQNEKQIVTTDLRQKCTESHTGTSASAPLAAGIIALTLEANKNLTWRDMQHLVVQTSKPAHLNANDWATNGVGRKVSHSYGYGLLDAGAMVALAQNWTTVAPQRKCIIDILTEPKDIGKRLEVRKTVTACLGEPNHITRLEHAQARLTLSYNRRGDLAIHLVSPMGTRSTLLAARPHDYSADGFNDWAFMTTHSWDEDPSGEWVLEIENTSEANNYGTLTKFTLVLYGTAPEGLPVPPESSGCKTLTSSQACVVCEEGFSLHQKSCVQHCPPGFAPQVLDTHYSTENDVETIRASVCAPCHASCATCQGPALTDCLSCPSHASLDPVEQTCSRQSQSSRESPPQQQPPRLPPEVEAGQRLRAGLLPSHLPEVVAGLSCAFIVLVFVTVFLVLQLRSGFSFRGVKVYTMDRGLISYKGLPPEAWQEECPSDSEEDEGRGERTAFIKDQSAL
- assay.text: furin cleavage Z-score vs untreated control; higher = more cleavage, active = 3.5 or more, inactive = 1 or less, 8 variable residues between constant flanks
- applied.conditions: 7.5 min
This is one part of the list. No count for the full screen is at hand.
Recorded furin cleavage Z-score for the following sequences
Please give only the number in your answer, with no unit.

Take a look at these entries with their results.
* CASLRAFTEAAGNASASA [HC1538] | -0.614
* CARHRKHSPQAGNASASA [FS-2680] | 0.00638

[ask] I would be grateful if you could share the reported furin cleavage Z-score for CAEPPVVHGCAGNASASA [HC1314] .
[reply] 0.438

[ask] Query (sequence): CAVVCCSMKYAGNASASA [HC2074] ; field requested: furin cleavage Z-score
[reply] 0.109

[ask] // furin cleavage Z-score lookup, key: CARMRRHHHHAGNASASA [FS-2158]
[reply] 2.42

[ask] Entry under review: CAISWCLWWLAGNASASA [HC580] . Reported furin cleavage Z-score?
[reply] -1.57

[ask] Any idea what furin cleavage Z-score was measured for CAWEECSQHLAGNASASA [HC1668] ?
[reply] 2.53

[ask] So what's the measured furin cleavage Z-score for this one? CATTPCSGVWAGNASASA [HC1910]
[reply] -0.00612

[ask] Using the record for CAKLPLAVMGAGNASASA [HC1461] , report its furin cleavage Z-score.
[reply] -1.04

[ask] Any idea what furin cleavage Z-score was measured for CAVVCCVMSYAGNASASA [HC103] ?
[reply] -1.06

Provenance of the data: the supplement of paper PMC3545927
